# credit: ChEMBL document CHEMBL1137894

test system: Oocyte; assay: Percentage opening of human Maxi-K channel in transfected oocyte cells at 20 uM; assay type: cell-based
Label key: class 1 means Activity under 300%; class 0 means Activity of 300% or more.

MOLECULE	GROUP
CN(C)CCN(C)CCC(=O)Nc1ccc(Sc2c(O)nc3ccc(C(F)(F)F)cc3c2-c2cc(Cl)ccc2O)cc1	class 0
CC1CCN(CCCC(=O)CSc2c(O)nc3ccc(C(F)(F)F)cc3c2-c2cc(Cl)ccc2O)CC1	class 1
CN(C)CCCN(C)CCC(=O)CSc1c(O)nc2ccc(C(F)(F)F)cc2c1-c1cc(Cl)ccc1O	class 1
CN1CCN(CCC(=O)Nc2ccc(Sc3c(O)nc4ccc(C(F)(F)F)cc4c3-c3cc(Cl)ccc3O)cc2)CC1	class 0
O=C(CSc1c(O)nc2ccc(C(F)(F)F)cc2c1-c1cc(Cl)ccc1O)N1CCN(CCOCCO)CC1	class 1

Input O=C(CCN1CCC(N2CCCCC2)CC1)Nc1ccc(Sc2c(O)nc3ccc(C(F)(F)F)cc3c2-c2cc(Cl)ccc2O)cc1 ; condition: Activity strictly below 300%. Does it hold?
class 1

Input CN(C)CCCN(C)CC(O)CSc1c(O)nc2ccc(C(F)(F)F)cc2c1-c1cc(Cl)ccc1O (configuration not stated) ; condition: Activity strictly below 300%. Does it hold?
class 1

Input NC(=O)C1CCN(C(=O)CSc2c(O)nc3ccc(C(F)(F)F)cc3c2-c2cc(Cl)ccc2O)CC1 ; condition: Activity strictly below 300%. Does it hold?
class 1

Input O=C(CCN1CCCC1)CSc1c(O)nc2ccc(C(F)(F)F)cc2c1-c1cc(Cl)ccc1O ; condition: Activity strictly below 300%. Does it hold?
class 0

Input COc1ccc(Cl)cc1-c1c(SCC(O)CN2CCN(C)CC2)c(O)nc2ccc(C(F)(F)F)cc12 (configuration not stated) ; condition: Activity strictly below 300%. Does it hold?
class 1

Input CC1CCCN(CCCC(=O)CSc2c(O)nc3ccc(C(F)(F)F)cc3c2-c2cc(Cl)ccc2O)C1 (configuration not stated) ; condition: Activity strictly below 300%. Does it hold?
class 1

Input CN1CCC(N(C)CCCC(=O)CSc2c(O)nc3ccc(C(F)(F)F)cc3c2-c2cc(Cl)ccc2O)C1 (configuration not stated) ; condition: Activity strictly below 300%. Does it hold?
class 1

Input O=S(=O)(CC(F)(F)F)Nc1ccc(Sc2c(O)nc3ccc(C(F)(F)F)cc3c2-c2cc(Cl)ccc2O)cc1 ; condition: Activity strictly below 300%. Does it hold?
class 1

Input O=C(CN1CCC(N2CCCCC2)CC1)Nc1ccc(Sc2c(O)nc3ccc(C(F)(F)F)cc3c2-c2cc(Cl)ccc2O)cc1 ; condition: Activity strictly below 300%. Does it hold?
class 1

Input CN1CCN(C(=O)CSc2c(O)nc3ccc(C(F)(F)F)cc3c2-c2cc(Cl)ccc2O)CC1 ; condition: Activity strictly below 300%. Does it hold?
class 0

Input O=C(CCN1CCCC1)Nc1ccc(Sc2c(O)nc3ccc(C(F)(F)F)cc3c2-c2cc(Cl)ccc2O)cc1 ; condition: Activity strictly below 300%. Does it hold?
class 1

* * *

test system: Oocyte; experiment: Percentage opening of human Maxi-K channel in transfected oocyte cells at 20 uM; assay type: cell-based
Classification field: YES = Activity at or over 200%; NO = Activity under 200%.

Answered cases to consult:
MOLECULE	EXPERIMENTAL_SYSTEM	GROUP
O=C(CCCN1CCCC1)Nc1ccc(Sc2c(O)nc3ccc(C(F)(F)F)cc3c2-c2cc(Cl)ccc2O)cc1	Oocyte	YES
CN(C)C1CCN(C(=O)CSc2c(O)nc3ccc(C(F)(F)F)cc3c2-c2cc(Cl)ccc2O)CC1	Oocyte	YES
CN(C)CCN(C)CC(=O)Nc1ccc(Sc2c(O)nc3ccc(C(F)(F)F)cc3c2-c2cc(Cl)ccc2O)cc1	Oocyte	YES

Check if Activity >= 200% (inclusive). Item: CCN(CC)CC(O)CSc1c(O)nc2ccc(C(F)(F)F)cc2c1-c1cc(Cl)ccc1O (stereo not drawn)
NO

Check if Activity >= 200% (inclusive). Item: Oc1ccc(Cl)cc1-c1c(SCC(O)CN2CCSCC2)c(O)nc2ccc(C(F)(F)F)cc12 (stereo not drawn)
YES

Check if Activity >= 200% (inclusive). Item: CN(C)CCN1CCN(CC(O)CSc2c(O)nc3ccc(C(F)(F)F)cc3c2-c2cc(Cl)ccc2O)CC1 (stereo not drawn)
NO

Check if Activity >= 200% (inclusive). Item: COc1ccc(Cl)cc1-c1c(SCC(O)CN2CCSCC2)c(O)nc2ccc(C(F)(F)F)cc12 (stereo not drawn)
NO

Check if Activity >= 200% (inclusive). Item: COc1ccc(Cl)cc1-c1c(SCC(O)CN2CCN(C(C)=O)CC2)c(O)nc2ccc(C(F)(F)F)cc12 (stereo not drawn)
NO

Check if Activity >= 200% (inclusive). Item: OCCN1CCN(CC(O)CSc2c(O)nc3ccc(C(F)(F)F)cc3c2-c2cc(Cl)ccc2O)CC1 (stereo not drawn)
YES

Check if Activity >= 200% (inclusive). Item: O=C(CCN1CCC(O)CC1)CSc1c(O)nc2ccc(C(F)(F)F)cc2c1-c1cc(Cl)ccc1O
YES

Check if Activity >= 200% (inclusive). Item: O=S(=O)(CCCN1CCOCC1)Nc1ccc(Sc2c(O)nc3ccc(C(F)(F)F)cc3c2-c2cc(Cl)ccc2O)cc1
YES

Check if Activity >= 200% (inclusive). Item: O=C(CN1CCCC1)Nc1ccc(Sc2c(O)nc3ccc(C(F)(F)F)cc3c2-c2cc(Cl)ccc2O)cc1
YES
